target: Vitamin D3 receptor (Homo sapiens, UniProt P11473); test: Agonist activity at VDR (unknown origin) expressed in CHO-K1 cells at 5 uM by luciferase reporter assay; assay type: cell-based; details: cho-k1, 5 µM
Sequence (P11473 whole entry): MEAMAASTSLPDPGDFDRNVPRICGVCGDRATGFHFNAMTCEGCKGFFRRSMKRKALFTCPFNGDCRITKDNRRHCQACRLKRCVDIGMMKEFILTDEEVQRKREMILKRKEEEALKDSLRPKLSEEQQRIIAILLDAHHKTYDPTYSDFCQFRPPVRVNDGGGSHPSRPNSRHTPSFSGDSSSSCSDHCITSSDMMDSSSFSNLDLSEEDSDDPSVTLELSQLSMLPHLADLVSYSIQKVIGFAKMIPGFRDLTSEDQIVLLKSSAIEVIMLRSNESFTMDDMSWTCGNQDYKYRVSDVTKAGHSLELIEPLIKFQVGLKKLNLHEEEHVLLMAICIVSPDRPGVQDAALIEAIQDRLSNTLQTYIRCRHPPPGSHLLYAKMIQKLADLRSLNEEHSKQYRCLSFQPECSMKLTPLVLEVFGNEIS

smiles entry	Activity
C[C@H](CCCC(O)(C(F)(F)F)C(F)(F)F)[C@H]1CC[C@H]2/C(=C/Cn3cc(-c4ccc(F)cc4)nn3)CCC[C@]12C	Not Active
C[C@H](CCCC(C)(C)O)[C@H]1CC[C@H]2/C(=C/Cn3cc(-c4ccccn4)nn3)CCC[C@]12C	Active
C[C@H](CCCC(C)(C)O)[C@H]1CC[C@H]2/C(=C/Cn3cc(CCCCO)nn3)CCC[C@]12C	Active
C[C@H](CCCC(C)(C)O)[C@H]1CC[C@H]2/C(=C/Cn3cnnn3)CCC[C@]12C	Active
C[C@H](CCC(F)(F)C(C)(C)O)[C@H]1CC[C@H]2/C(=C/Cn3nnc(-c4ccc(F)cc4)n3)CCC[C@]12C	Not Active
C[C@H](CCC(F)(F)C(C)(C)O)[C@H]1CC[C@H]2/C(=C/Cn3cc(-c4ccc(F)cc4)nn3)CCC[C@]12C	Not Active
C[C@H](CCC(F)(F)C(C)(C)O)[C@H]1CC[C@H]2/C(=C/Cn3nnnc3-c3ccc(F)cc3)CCC[C@]12C	Not Active
C[C@H](CCCC(C)(C)O)[C@H]1CC[C@H]2/C(=C/Cn3ncnn3)CCC[C@]12C	Active
